target: HLA-B*51:01; assay: IEDB peptide-MHC binding, purified MHC/competitive/fluorescence; filed as Kd, often an IC50 or EC50 that approximates it; bounds were set here for any values at or beyond the usual limits of such assays; conditions: source organism: Rickettsia sibirica 246
ASSAY_ENDPOINT: Kd

IN: Dear colleague, I am looking for the recorded Kd of the following sequence: SVANIDRIK
OUT: ≥ 20 µM

###

biological target: HLA-B*15:17; assay: IEDB peptide-MHC binding, purified MHC/competitive/fluorescence; filed as Kd, often an IC50 or EC50 that approximates it; bounds were set here for any values at or beyond the usual limits of such assays; conditions: source organism: Mycobacterium tuberculosis variant bovis BCG str. Pasteur 1173P2
pKd: −log10 of the molar value.
ASSAY_ENDPOINT: pKd

IN: Dear colleague, I am looking for the recorded pKd of the following sequence: AEDLADHHV
OUT: ≤ 4.70
